Assay explanation: Apparent volume of distribution in Sprague-Dawley rat at 5 mg/kg, iv administered as single dose by LC-MS/MS analysis
Type: ADME, organism-based
Condition info: in vivo, read-out: Vz
Metric name: Vd (L/kg)
Give bare numbers, in L/kg.

What does the data say about its Vd? Entry: Cl.Oc1ccc2[nH]c(-c3ccc4c(Cl)cc(Cl)c(O)c4n3)cc2c1 2.49

----------
Assay explanation: Initial plasma concentration in Sprague-Dawley rat at 5 mg/kg, iv administered as single dose by LC-MS/MS analysis
Format: ADME, organism-based
Metric name: C0
For clarity, give the value followed by its unit.

What does the data say about its C0? Entry: Cl.Oc1ccc2[nH]c(-c3ccc4c(Cl)cc(Cl)c(O)c4n3)cc2c1 4930 ng/mL
